Reference source for all entries: patent US20210009557A1

Catalogue of compounds with associated efflux ratio at 90 min, 10 μM
- PROTOCOL: in vitro
- ASSAY_SETUP: human, Caco-2, pH 7.4
ATTRIBUTE_MEASURED: efflux ratio at 90 min, 10 μM

1) NC(=O)CCN(Cc1nccs1)[C@H]1CCCc2cccnc21 [Compound I-50]
0.1 to 10
2) CC(c1ccccn1)N(CCC(N)=O)Cc1ccccn1 (stereo not drawn) [Compound I-11]
0.1 to 10
3) Cc1cccnc1CN(CCc1cnc[nH]1)C(C)c1ccccn1 (stereo not drawn) [Compound I-8]
10 to 30
4) c1cnc2c(c1)CCC[C@@H]2N(CCC1CCCCO1)Cc1nc2ccccc2[nH]1 (stereo partly drawn) [Compound I-16]
0.1 to 10
5) Cc1cccnc1CN(CCC(N)=O)Cc1ncccc1-c1ccccc1 [Compound I-46]
0.1 to 10
6) Clc1cccnc1CN(CCc1c[nH]cn1)[C@H]1CCCc2cccnc21 [Compound I-27]
0.1 to 10
7) CC(c1ccccn1)N(CCc1ccccn1)Cc1nc2ccccc2[nH]1 (stereo not drawn) [Compound I-2]
0.1 to 10
8) Cc1cccnc1CN(CCC(N)=O)C(C)c1ccccn1 (stereo not drawn) [Compound I-13]
0.1 to 10
9) Clc1cccnc1CN(CCc1cnc[nH]1)Cc1nccs1 [Compound I-53]
0.1 to 10
10) CC(C)c1cccnc1CN(CCC(N)=O)Cc1ncccc1-c1ccccc1 [Compound I-47]
0.1 to 10
11) Cc1cccnc1CN(CCc1cnc[nH]1)Cc1ncccc1C(C)C [Compound I-34]
0.1 to 10
12) NC(=O)CCN(Cc1nccc2ccccc12)[C@H]1CCCc2cccnc21 [Compound I-49]
0.1 to 10
13) Cc1cccnc1CN(CCn1ccccc1=O)Cc1ncccc1C [Compound I-58]
0.1 to 10
14) Cc1cccnc1CN(CCC(N)=O)Cc1ncccc1C [Compound I-14]
0.1 to 10
15) Cc1cccnc1CN(CCc1c[nH]cn1)Cc1nc2cc(F)ccc2n1C [Compound I-42]
> 30
16) NC(=O)CCN(Cc1ncccc1-c1ccccc1)[C@H]1CCCc2cccnc21 [Compound I-51]
0.1 to 10
17) Cn1c(CN(CCc2c[nH]cn2)[C@H]2CCCc3cccnc32)nc2ccccc21 [Compound I-25]
10 to 30
18) CC(c1ccccn1)N(CCC(N)=O)Cc1nc2ccccc2[nH]1 (stereo not drawn) [Compound I-12]
> 30
19) OCCCN(Cc1nc2ccccc2[nH]1)[C@H]1CCCc2cccnc21 [Compound I-19]
0.1 to 10
20) c1ccc2c(CN(CCc3c[nH]cn3)Cc3nccs3)nccc2c1 [Compound I-54]
0.1 to 10
21) CC(C)c1cccnc1CN(CCc1cnc[nH]1)Cc1ncccc1C(C)C [Compound I-38]
0.1 to 10
22) CC(c1ccccn1)N(CCc1cnc[nH]1)Cc1ccccn1 (stereo not drawn) [Compound I-6]
10 to 30
23) Cc1cccnc1CN(CCc1ccccn1)Cc1ncccc1C [Compound I-4]
0.1 to 10
24) NC(=O)CCN(Cc1ncccc1Cl)[C@H]1CCCc2cccnc21 [Compound I-24]
0.1 to 10
25) Cn1c(CN(CCC(N)=O)[C@H]2CCCc3cccnc32)nc2ccccc21 [Compound I-22]
10 to 30
26) Cc1cccnc1CN(CCc1c[nH]cn1)Cc1nccs1 [Compound I-52]
0.1 to 10
27) Clc1cccnc1CN(CCc1cnc[nH]1)Cc1nccc2ccccc12 [Compound I-37]
0.1 to 10
28) Clc1cccnc1CN(CCc1cnc[nH]1)Cc1ncccc1Cl [Compound I-28]
0.1 to 10
29) Cc1cccnc1CN(CCc1cnc[nH]1)Cc1nccc2ccccc12 [Compound I-36]
10 to 30
30) Cc1cccnc1CN(CCc1c[nH]cn1)Cc1nc2c(F)cccc2n1C [Compound I-43]
0.1 to 10
31) Cc1cccnc1CN(CCc1ccccn1)C(C)c1ccccn1 (stereo not drawn) [Compound I-3]
0.1 to 10
32) NC(=O)CCN(Cc1nc2ccccc2[nH]1)[C@H]1CCCc2cccnc21 [Compound I-21]
> 30
33) COc1cccnc1CCN(Cc1ncccc1C)Cc1ncccc1C [Compound I-56]
0.1 to 10
34) CC[C@H]1OC(=O)[C@H](C)[C@@H](O[C@H]2C[C@@](C)(OC)[C@@H](O)[C@H](C)O2)[C@H](C)[C@@H](O[C@@H]2O[C@H](C)C[C@H](N(C)C)[C@H]2O)[C@](C)(O)C[C@@H](C)C(=O)[C@H](C)[C@@H](O)[C@]1(C)O [Erythromycin, reference compound]
> 116
35) Cn1c(CN(CCc2c[nH]cn2)[C@H]2CCCc3cccnc32)nc2cc(F)ccc21 [Compound I-45]
0.1 to 10
36) Cc1cccnc1CN(CCc1c[nH]cn1)Cc1nc2ccc(F)cc2n1C [Compound I-41]
> 30
